Tested on: SW-620
Experiment: NCI tumour cell line growth inhibition, 48 h
Calls of active or inactive are those of the source. Rule as the data show it: active = GI50 up to about 1.1 µM and inactive = higher.
Hi! Could you answer with just one of these? t = active, f = inactive

Query block: Tell me the assay call for C/C=C(\C)c1cc(=O)c2c(C)cc3c(c2o1)C(=O)c1c(O)c(C2CC(C)(N(C)C)C(OC(C)=O)C(C)O2)cc(C2CC(N(C)C)C(O)C(C)O2)c1C3=O (stereo not given) please.
Result block: t

Query block: # lookup: test call for Cc1cccc(O)c(=O)c1
Result block: f

Query block: Tell me the assay call for CCOc1ccccc1NC(=O)CSc1nnc(Cc2ccccc2)o1 please.
Result block: f

Query block: # outcome recorded in this test, key = CC(C)CCC1(O)O[C@H]2C[C@H]3[C@@H]4CCC5CC(=O)C=C[C@]5(C)[C@H]4CC[C@]3(C)[C@H]2[C@@H]1C (stereo not given in full)
Result block: f

Query block: Check the results log: what was the call for CCN(C(=O)N[C@@H](CC(C)C)C(=O)NCC(=O)OC)c1ccccc1 ?
Result block: f

Query block: // param item: Cn1c2c(c3ccccc31)C1CCCCCCC1C1C(=O)OC(=O)C21 (stereo not given) ; yields the recorded call
Result block: f

Query block: Entry Cc1nc(O)c2ncn(CCO)c2n1 : call = ?
Result block: f

Query block: Could you please tell me the result logged for O=C(/C=C/c1ccc2ccccc2c1)NCc1ccc(C(=O)NCCc2ccccc2)cc1 in this assay?
Result block: f

Query block: Test call for this molecule, please: COc1ccc(/N=N/c2c(C)c(C#N)c(=S)n(C3OC(COC(C)=O)C(OC(C)=O)C(OC(C)=O)C3OC(C)=O)c2C)cc1 (stereo not given)
Result block: f

Query block: Per the assay record, what outcome was assigned to COC(=O)C[C@](O)(CCC(C)(C)O)C(=O)O[C@@H]1C(OC)=C[C@]23CCCN2CCc2cc4c(cc2[C@H]13)OCO4 ?
Result block: t

Query block: Per the assay record, what outcome was assigned to CC(C)(C)OC(=O)CC(NC(=O)OC(C)(C)C)C(=O)Oc1ccc([N+](=O)[O-])cc1 (stereo not given) ?
Result block: f

Query block: Assay result, entry CCCCNC(=O)c1cc2c(cc1Cl)Sc1nccn1S2(=O)=O — outcome?
Result block: f

Query block: Test call for this molecule, please: O=c1oc(C(C(F)(F)F)C(F)(F)F)nc2ccccc12
Result block: f

Query block: # outcome recorded in this test, key = O=C1/C(=C/c2ccc3c(c2)OCCO3)CCC/C1=C\c1ccc2c(c1)OCCO2
Result block: f

Query block: GET /call?item= CC(C)n1c(=O)[nH]n(-c2ccccc2)c1=O returns the recorded outcome of this test.
Result block: f

Query block: Please let me know the test result on file for O=C1CNCCCN2CCN(CCCNCC(=O)Nc3ccc(cc3)S(=O)(=O)c3ccc(cc3)NC(=O)CNCCCN3CCN(CCCNCC(=O)Nc4ccc(cc4)S(=O)(=O)c4ccc(cc4)N1)CC3)CC2 .
Result block: f

Query block: Entry COc1ccc(C2CC(=O)CC(c3ccc(OC)cc3)C23C(=O)NC(=S)NC3=O)cc1 (stereo not given) : call = ?
Result block: f

Query block: Write down the call the test reported for this molecule. Item: Cc1nc(C(N)=S)sc1C(=O)C/C(=N/N)C(=O)Nc1ccc(Cl)cc1
Result block: f

Query block: How was N=C(N)n1nc2c(c1O)CCCC2 classified in this test?
Result block: f

Query block: # lookup: test call for CCC(C)C1=C(O)[N+]2([O-])Oc3ccc(-c4c(O)c(O)c(-c5ccc(OC(C)=O)cc5)c(OC(C)=O)c4OC(C)=O)cc3OC2(C(C)CC)C(=O)N1O (stereo not given)
Result block: f

Query block: # lookup: test call for CO/N=C1\CC(NC(=O)CNC(=O)OC(C)(C)C)c2ccsc21 (stereo not given)
Result block: f

Query block: State the result this test recorded for CC(=O)O[C@H]1C[C@H]2C(=S)Nc3ccccc3C(=S)N2C1 .
Result block: f

Query block: State the result this test recorded for CC(C)=CCNc1ncnc2c1c(C#N)cn2C1OC(CO)C(O)C1O (stereo not given) .
Result block: f

Query block: Give the logged outcome of this assay for the following molecule: CN(C)Cc1cc(C(=O)/C=C/c2ccccc2)cc(CN(C)C)c1O
Result block: f

Query block: Any idea what this test logged for COc1cccc(C(=O)C2C(=O)N(C)CCc3ccccc32)c1OC (stereo not given) ?
Result block: f

Query block: What is the recorded call for this molecule in the test? COc1cc(C2c3cccc4cccc(c34)C3CCC(=O)N32)cc(O)c1O (stereo not given)
Result block: f

Query block: Outcome logged for COC1=C(N2CC2)C(=O)c2nc3n(c2C1=O)CCC3 in this assay:
Result block: t

Query block: Tell me the assay call for Nc1nc(=O)[nH]c2c1cnn2Cc1ccccc1 please.
Result block: f

Query block: Tell me the recorded outcome of this test for O=C(NO)c1ccc(O)c(O)c1 .
Result block: f

Query block: Tell me the recorded outcome of this test for O=C(CC(=O)c1ccccc1NC1=Cc2ccccc2C(=O)C1=O)C(=O)NC1=C(Cl)C(=O)c2ccccc2C1=O .
Result block: f

Query block: # fetch the recorded call for CC(=O)Nc1cc2ccc(=O)oc2cc1Cl here
Result block: f

Query block: Hi team, can someone confirm the assay call for c1ccc(C2=C(c3ccccc3)P(c3ccccc3)C2)cc1 (stereo not given) ?
Result block: f

Query block: Any idea what this test logged for CN(C(=O)c1cccs1)C(=S)N1CCN(c2ccccn2)CC1 ?
Result block: f

Query block: For CN(C(=O)Cc1cc(Cl)c(Cl)cc1N=C=S)[C@H]1CCCC[C@@H]1N1CCCC1 , what call appears in the results of this test?
Result block: f

Query block: # outcome recorded in this test, key = CN1Nc2ccccc2CC1=O
Result block: f

Query block: Per the records of this test, what outcome belongs to OC12c3ccccc3C3CCC4(OCCO4)C3C1c1ccccc12 (stereo not given) ?
Result block: f

Query block: Each molecule tested received a call. Report the one for Cc1ccc(/N=C2N=C(Cl)/C(=C\c3ccco3)N\2)cc1 .
Result block: f

Query block: Please let me know the test result on file for CCCC(=O)OCC1OC(n2cc(F)c(=O)[nH]c2=O)C(F)C1O (stereo not given) .
Result block: f

Query block: Any idea what this test logged for CN(C)c1ccc(/C=C/c2ccc(/C=C/c3ccc(N(C)C)cc3)cc2)cc1 ?
Result block: f

Query block: Name the outcome recorded for CC1(C)N=C(N)N=C(N)N1c1cccc(C(=O)Nc2ccc(S(=O)(=O)F)cc2)c1 in the assay.
Result block: f

----------
System: K562
Assay: NCI tumour cell line growth inhibition, 48 h
The source made the active and inactive calls. Cut-off read from the data, not from the text of the source: active = GI50 up to about 1.1 µM and inactive = higher.
METRIC: GI50

Query block: Lookup: GI50 / K562 / CC1(C)OC(COP2OCCO2)[C@H](COP2OCCO2)O1 (stereo not given in full)
Result block: > 100 µM (inactive)

Query block: Look up GI50 with K562 for this compound: COc1ccc(OC)c2c(C)ccnc12
Result block: > 37.7 µM (inactive)

Query block: Item COC(=O)C1=C(OC(=O)/C(=C/c2ccc(Cl)cc2)c2ccccc2)C(C(=O)OC)[C@@]2(O)[C@@H](C(=O)OC)[C@H](C)C[C@@H]1[C@@H]2C(=O)OC (stereo not given in full) with K562 - GI50?
Result block: > 100 µM (inactive)

Query block: Find the measured GI50: item Cc1onc(-c2c(F)cccc2Cl)c1C(=O)N[C@@H]1C(=O)N2[C@@H]1SC(C)(C)[C@@H]2C(=O)O , target or system K562.
Result block: > 100 µM (inactive)

Query block: Hello, I am looking for reported GI50 with K562 for CCN(CC)CCC(=O)c1ccc(Oc2ccc(F)cc2)cc1 . Could you help?
Result block: 38.3 µM (inactive)

Query block: Hi! What's the reported GI50 for OCCN(CCO)c1ccc2c(c1)Cc1ccccc1-2 on K562?
Result block: 34 µM (inactive)

Query block: Form field: GI50 recorded for OC12c3ccccc3C3CCC4(OCCO4)C3C1c1ccccc12 (stereo not given) with K562 (enter value)
Result block: 49.8 µM (inactive)

Query block: Fill in the recorded GI50 for this compound, with K562 as test system: CN(C(=O)Cc1cc(Cl)c(Cl)cc1N=C=S)[C@H]1CCCC[C@@H]1N1CCCC1
Result block: 2.02 µM (inactive)

Query block: What GI50 appears in the records for this compound with K562? O=C(O)c1ccc2c(c1)C(=O)N(c1ccc(S(=O)(=O)c3ccc(N4C(=O)c5ccc(C(=O)O)cc5C4=O)cc3)cc1)C2=O
Result block: > 100 µM (inactive)

Query block: Can you look up GI50 on K562 for COc1ccccc1NC(=S)N/N=C1\C(=O)Nc2ccccc21 ?
Result block: > 100 µM (inactive)

Query block: Give GI50 (K562) of the following compound: COc1ccc(/N=N/c2c(C)c(C#N)c(=S)n(C3OC(COC(C)=O)C(OC(C)=O)C(OC(C)=O)C3OC(C)=O)c2C)cc1 (stereo not given)
Result block: > 100 µM (inactive)

Query block: # value lookup — system K562, readout GI50, item O=C1NC(=S)N/C1=C\c1cc2c(=O)c3ccccc3sc2s1
Result block: 29.9 µM (inactive)

Query block: Quick check: GI50 on K562, item Cn1c2c(c3ccccc31)C1CCCCCCC1C1C(=O)OC(=O)C21 (stereo not given) ?
Result block: 31.3 µM (inactive)

Query block: Field: GI50 (K562). Entry: CC(=O)OCC1OC(n2cnc3nc(Br)[nH]c(=O)c32)C(OC(C)=O)C1OC(C)=O (stereo not given)
Result block: > 100 µM (inactive)

Query block: Notebook: pull reported GI50 for K562, entry CCCCNC(=O)c1cc2c(cc1Cl)Sc1nccn1S2(=O)=O
Result block: 78.5 µM (inactive)

Query block: Give K562 GI50 for O=C1C(Cl)C2(CC(/C=C/c3ccccc3O)=NN2c2cccc(S(=O)(=O)O)c2)N1c1nc2ccccc2s1 (stereo not given)
Result block: 20.2 µM (inactive)

Query block: Give recorded GI50 with K562 for the following compound: C(=N\CCCN1CCN(CCC/N=C/c2cccc3ccccc23)CC1)/c1cccc2ccccc12
Result block: 26.4 µM (inactive)

Query block: Observed GI50 on K562 for CC(=O)Nn1c(=S)[nH]c2ccccc21 , please.
Result block: > 100 µM (inactive)

Query block: Look up GI50 with K562 for this compound: O=C(O)CCCc1nc2c(n1Cc1ccccc1)C(=O)c1ccccc1C2=O
Result block: 42.7 µM (inactive)

Query block: // map Cc1cc(-c2nc3cc(F)ccc3s2)ccc1NC(=O)[C@@H](N)CCCCN to recorded GI50 (system: K562)
Result block: 2.17 µM (inactive)

Cited source for all entries: ChEMBL document CHEMBL1201862
